test system: Crude diglycosidase; assay: Examination of pH in the conversion into isoflavone aglycons by diglycosidase using soybean materials; format: biochemical, Penicillium multicolor IAM7153; parameters: concentration or dose not given beside the values; settings: pH3.4; heat treatment of enzyme: no; reaction time 3 h
Reported Decomposition efficiency of genistin family in defatted soybean is given for each of the following molecules.

# annotated cases, reported Decomposition efficiency of genistin family in defatted soybean shown
molecule	result
O=C(O)CC(=O)OC[C@H]1O[C@@H](Oc2cc(O)c3c(=O)c(-c4ccc(O)cc4)coc3c2)[C@H](O)[C@@H](O)[C@@H]1O [malonylgenistin, 6″-O-malonylgenistin]	36.4%
O=c1c(-c2ccc(O)cc2)coc2cc(O)cc(O)c12 [genistein]	62.5%

Alright, here's another molecule for you.
Ask | # get_value(readout='Decomposition efficiency of genistin family in defatted soybean', item= CC(=O)OC[C@H]1O[C@@H](Oc2cc(O)c3c(=O)c(-c4ccc(O)cc4)coc3c2)[C@H](O)[C@@H](O)[C@@H]1O [acetylgenistin, 6″-O-acetylgenistin] )
Reply | 1.1%
